# System name: T1, human TrkA receptor on the cell surface (human, UniProt P04629 33-796)
# T1 construct: whole, on cells; PC12-hTrkA: high density; also called hTrkA; huTrkA
# T1 sequence (P04629 33-796): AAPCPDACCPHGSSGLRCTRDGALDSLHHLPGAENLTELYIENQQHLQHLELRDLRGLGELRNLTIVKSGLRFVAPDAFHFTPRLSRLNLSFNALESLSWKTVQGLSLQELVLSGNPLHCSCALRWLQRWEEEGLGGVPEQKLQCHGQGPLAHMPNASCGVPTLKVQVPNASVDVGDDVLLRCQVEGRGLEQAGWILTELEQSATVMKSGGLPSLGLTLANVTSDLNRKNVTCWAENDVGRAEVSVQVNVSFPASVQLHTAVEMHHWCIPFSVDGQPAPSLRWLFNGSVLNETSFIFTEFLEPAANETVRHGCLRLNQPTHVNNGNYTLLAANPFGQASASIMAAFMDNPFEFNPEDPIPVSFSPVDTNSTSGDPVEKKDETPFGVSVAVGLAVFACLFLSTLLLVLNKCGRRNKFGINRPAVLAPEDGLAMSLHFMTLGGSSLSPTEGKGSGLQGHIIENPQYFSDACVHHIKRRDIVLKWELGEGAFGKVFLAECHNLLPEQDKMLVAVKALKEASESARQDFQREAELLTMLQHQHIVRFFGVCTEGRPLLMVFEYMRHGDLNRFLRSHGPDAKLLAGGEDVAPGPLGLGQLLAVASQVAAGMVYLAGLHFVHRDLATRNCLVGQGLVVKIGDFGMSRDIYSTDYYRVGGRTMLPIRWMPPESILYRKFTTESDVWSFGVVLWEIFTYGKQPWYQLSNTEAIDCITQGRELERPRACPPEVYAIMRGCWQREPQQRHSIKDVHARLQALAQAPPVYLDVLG
# Assay comment: flow cytometry on TF-1 cells, 4 µg/ml
# Parameters: reference not given here

Binder: BXhVH2VL8 (antibody, human IgG1, V domains shown, Human IgG1 constant regions (IgG1 expression vectors); COS-7 supernatant; also called hVH2/hVL8) VH: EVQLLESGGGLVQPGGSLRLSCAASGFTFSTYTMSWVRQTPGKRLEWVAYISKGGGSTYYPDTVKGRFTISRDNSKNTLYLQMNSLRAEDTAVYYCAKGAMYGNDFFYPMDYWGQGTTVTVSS VL: QIVLTQSPATLSLSPGEEATLSCSASSSVSYMHWYQQKSGTSPRLLIYTTSNLASGIPSRFSGSGSGTFYTLTISSLEPEDAADYYCHQWSSYPWTFGGGTKLEIK
Geo Mean Fluorescence: 6.5

Binder: BXhVH1VL8 (antibody, human IgG1, V domains shown, Human IgG1 constant regions (IgG1 expression vectors); COS-7 supernatant; also called hVH1/hVL8) VH: EVKLLESGGGLVQPGGSLRLSCAASGFTFSTYTMSWVRQTPGKGLEWVAYISKGGGSTYYPDTVKGRFTISRDNSKNTLYLQMNSLRAEDTAVYYCAKGAMYGNDFFYPMDYWGQGTTVTVSS VL: QIVLTQSPATLSLSPGEEATLSCSASSSVSYMHWYQQKSGTSPRLLIYTTSNLASGIPSRFSGSGSGTFYTLTISSLEPEDAADYYCHQWSSYPWTFGGGTKLEIK
Geo Mean Fluorescence: 5.2

Binder: BXhVH3VL4 (antibody, human IgG1, V domains shown, Human IgG1 constant regions (IgG1 expression vectors); COS-7 supernatant; also called hVH3/hVL4) VH: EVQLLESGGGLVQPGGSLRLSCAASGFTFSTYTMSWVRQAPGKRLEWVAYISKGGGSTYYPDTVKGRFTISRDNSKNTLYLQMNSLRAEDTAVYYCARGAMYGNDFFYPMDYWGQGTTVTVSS VL: QIVLTQSPATLSLSPGERATLSCSASSSVSYMHWYQQKPGQSPRLLIYTTSNLASGIPSRFSGSGSGTDFTLTISSLEPEDAADYYCHQWSSYPWTFGGGTKLEIK
Geo Mean Fluorescence: 7.1
